# Tested on: Escherichia coli TOP10
# ASSAY_EXPLANATION: shrunken log2 fold change of peptide-encoding DNA abundance (4.5 h post-induction vs induction); higher = less antimicrobial activity (less host growth inhibition)
# CONDITION_DESCRIPTION: time post-induction: 4.5 h; library: site-saturation at positions 5, 18, 19, 20
REPORTED_PROPERTY: shrunken log2 fold change
The response must contain the number and no unit.

Endpoint output: shrunken log2 fold change of "RRIRDRPPRLPRPRPRPKRYPRP" . Value? -0.236

And "RRIRSRPPRLPRPRPRPALYPRP" ? -0.124

And "RRIRKRPPRLPRPRPRPSIPPRP" ? -1.13

And "RRIRRRPPRLPRPRPRPRHFPRP" ? -0.156

And "RRIRERPPRLPRPRPRPEPVPRP" ? -0.00161

And "RRIRERPPRLPRPRPRPRPTPRP" ? 0.35

And "RRIRNRPPRLPRPRPRPTWYPRP" ? 0.0037

And "RRIRCRPPRLPRPRPRPPSPPRP" ? 0.724

And "RRIRVRPPRLPRPRPRPEHPPRP" ? 0.0168

And "RRIRNRPPRLPRPRPRPIMNPRP" ? -0.619

And "RRIRGRPPRLPRPRPRPQCDPRP" ? 0.479

And "RRIRHRPPRLPRPRPRPSMSPRP" ? -0.0246

And "RRIRIRPPRLPRPRPRPWFVPRP" ? -0.578

And "RRIRARPPRLPRPRPRPPAYPRP" ? 0.3

And "RRIRGRPPRLPRPRPRPDICPRP" ? 0.2

###

Please provide measured shrunken log2 fold change for the entries that follow.
# System: Escherichia coli TOP10
# ASSAY_EXPLANATION: shrunken log2 fold change of peptide-encoding DNA abundance (4.5 h post-induction vs induction); higher = less antimicrobial activity (less host growth inhibition)
# CONDITION_DESCRIPTION: time post-induction: 4.5 h; library: site-saturation at positions 5, 18, 19, 20
The response must contain the number and no unit.

Endpoint output: shrunken log2 fold change of "RRIRDRPPRLPRPRPRPEMKPRP" . Value? 0.0494

And "RRIRHRPPRLPRPRPRPFHEPRP" ? -0.2

And "RRIRHRPPRLPRPRPRPIVYPRP" ? -0.452

And "RRIRRRPPRLPRPRPRPKRQPRP" ? 0.584

And "RRIRLRPPRLPRPRPRPSETPRP" ? -0.0373

And "RRIRIRPPRLPRPRPRPKHRPRP" ? -0.103

And "RRIRNRPPRLPRPRPRPLCKPRP" ? -0.146

And "RRIRKRPPRLPRPRPRPVKNPRP" ? 0.00783

And "RRIRERPPRLPRPRPRPMAFPRP" ? 0.099

And "RRIRSRPPRLPRPRPRPSDTPRP" ? -0.396

And "RRIRCRPPRLPRPRPRPGIAPRP" ? 0.201

And "RRIRDRPPRLPRPRPRPFNWPRP" ? 0.0464

And "RRIRIRPPRLPRPRPRPLCHPRP" ? -0.626

And "RRIRERPPRLPRPRPRPLGAPRP" ? -0.159

And "RRIRQRPPRLPRPRPRPIDAPRP" ? 0.000655

###

# System: Escherichia coli TOP10;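 note: peptides expressed intracellularly from a pBAD plasmid library in pooled LB shake-flask culture, induced with 0.3% L-arabinose, DNA abundance read by NGS, three biological replicates, DESeq2 with apeglm shrinkage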
# ASSAY_EXPLANATION: shrunken log2 fold change of peptide-encoding DNA abundance (4.5 h post-induction vs induction); higher = less antimicrobial activity (less host growth inhibition)
# CONDITION_DESCRIPTION: time post-induction: 4.5 h; library: site-saturation at positions 5, 18, 19, 20
REPORTED_PROPERTY: shrunken log2 fold change

Endpoint output: shrunken log2 fold change of "RRIRRRPPRLPRPRPRPGCMPRP" . Value? 0.835

And "RRIRNRPPRLPRPRPRPPLNPRP" ? 0.0798

And "RRIRMRPPRLPRPRPRPRVQPRP" ? 0.64

And "RRIRGRPPRLPRPRPRPCATPRP" ? 2.7

And "RRIRMRPPRLPRPRPRPGWHPRP" ? 0.41

And "RRIRSRPPRLPRPRPRPRHMPRP" ? -0.0166

And "RRIRWRPPRLPRPRPRPSPLPRP" ? -0.26

And "RRIRFRPPRLPRPRPRPISMPRP" ? -0.137

And "RRIRFRPPRLPRPRPRPSNVPRP" ? -0.989

And "RRIRQRPPRLPRPRPRPCEKPRP" ? -0.00192

And "RRIRERPPRLPRPRPRPEAPPRP" ? 0.406

And "RRIRFRPPRLPRPRPRPHVLPRP" ? -0.286

And "RRIRNRPPRLPRPRPRPVWTPRP" ? -0.118

And "RRIRQRPPRLPRPRPRPRYWPRP" ? -0.0336

And "RRIRFRPPRLPRPRPRPNIGPRP" ? -0.0107

And "RRIRYRPPRLPRPRPRPESPPRP" ? -0.0215

And "RRIRFRPPRLPRPRPRPSSHPRP" ? -0.682

And "RRIRLRPPRLPRPRPRPPKMPRP" ? 0.159

And "RRIRTRPPRLPRPRPRPETEPRP" ? -0.016

And "RRIRNRPPRLPRPRPRPHLVPRP" ? -0.0893

And "RRIRKRPPRLPRPRPRPENIPRP" ? -0.0813

And "RRIRDRPPRLPRPRPRPPKYPRP" ? -0.47

And "RRIRTRPPRLPRPRPRPPLIPRP" ? 0.0432

And "RRIRTRPPRLPRPRPRPQPWPRP" ? 0.314

And "RRIRVRPPRLPRPRPRPSPFPRP" ? -0.442

And "RRIRLRPPRLPRPRPRPTCFPRP" ? -0.156

And "RRIRDRPPRLPRPRPRPQIRPRP" ? -0.222

And "RRIRHRPPRLPRPRPRPVIMPRP" ? -1

And "RRIRFRPPRLPRPRPRPNWHPRP" ? -0.0729

And "RRIRHRPPRLPRPRPRPTSYPRP" ? -0.178

And "RRIRGRPPRLPRPRPRPKDYPRP" ? -0.00224

And "RRIRFRPPRLPRPRPRPWAVPRP" ? -0.0667

And "RRIRYRPPRLPRPRPRPCDMPRP" ? -0.01

And "RRIRSRPPRLPRPRPRPNIQPRP" ? -0.28

And "RRIRERPPRLPRPRPRPCIYPRP" ? -0.328

And "RRIRHRPPRLPRPRPRPTGWPRP" ? 0.841

And "RRIRYRPPRLPRPRPRPEDYPRP" ? -0.00116

And "RRIRARPPRLPRPRPRPNYSPRP" ? -0.502

And "RRIRQRPPRLPRPRPRPHCKPRP" ? -0.187

And "RRIRFRPPRLPRPRPRPRVIPRP" ? -0.0914

And "RRIRIRPPRLPRPRPRPCSTPRP" ? -0.484

And "RRIRDRPPRLPRPRPRPWKIPRP" ? 0.0112

And "RRIRYRPPRLPRPRPRPNDQPRP" ? -0.819

And "RRIRRRPPRLPRPRPRPPFIPRP" ? 0.299

And "RRIRSRPPRLPRPRPRPFSWPRP" ? -0.197

And "RRIRCRPPRLPRPRPRPQTTPRP" ? -0.155

And "RRIRPRPPRLPRPRPRPVEVPRP" ? -0.0864

And "RRIRLRPPRLPRPRPRPYHVPRP" ? -1.29

And "RRIRYRPPRLPRPRPRPVYFPRP" ? -1.42

And "RRIRHRPPRLPRPRPRPDTAPRP" ? 0.0194

And "RRIRWRPPRLPRPRPRPEIMPRP" ? 1.1

And "RRIRWRPPRLPRPRPRPKWIPRP" ? -0.0267

And "RRIRMRPPRLPRPRPRPFLYPRP" ? -0.124

And "RRIRWRPPRLPRPRPRPYKNPRP" ? -0.61

And "RRIRWRPPRLPRPRPRPGNNPRP" ? 0.1

And "RRIRNRPPRLPRPRPRPMDAPRP" ? 0.101

And "RRIRFRPPRLPRPRPRPVMMPRP" ? -0.43

And "RRIRVRPPRLPRPRPRPISLPRP" ? -0.0572

And "RRIRKRPPRLPRPRPRPDGPPRP" ? 0.022

And "RRIRNRPPRLPRPRPRPTQRPRP" ? 0.582

And "RRIRRRPPRLPRPRPRPAFSPRP" ? -0.00711

And "RRIRLRPPRLPRPRPRPVYKPRP" ? -0.134

And "RRIRWRPPRLPRPRPRPTTPPRP" ? 0.642
